Reference for the values: patent US11773078B2

Molecular target: furin (endogenous protease) in U20S cells (Homo sapiens, UniProt P09958)
Construct: the endogenous protease cleaves GFP; endogenous in cells; host or cells: U2OS cells transduced with a BacMam reporter
Sequence (P09958 108-794): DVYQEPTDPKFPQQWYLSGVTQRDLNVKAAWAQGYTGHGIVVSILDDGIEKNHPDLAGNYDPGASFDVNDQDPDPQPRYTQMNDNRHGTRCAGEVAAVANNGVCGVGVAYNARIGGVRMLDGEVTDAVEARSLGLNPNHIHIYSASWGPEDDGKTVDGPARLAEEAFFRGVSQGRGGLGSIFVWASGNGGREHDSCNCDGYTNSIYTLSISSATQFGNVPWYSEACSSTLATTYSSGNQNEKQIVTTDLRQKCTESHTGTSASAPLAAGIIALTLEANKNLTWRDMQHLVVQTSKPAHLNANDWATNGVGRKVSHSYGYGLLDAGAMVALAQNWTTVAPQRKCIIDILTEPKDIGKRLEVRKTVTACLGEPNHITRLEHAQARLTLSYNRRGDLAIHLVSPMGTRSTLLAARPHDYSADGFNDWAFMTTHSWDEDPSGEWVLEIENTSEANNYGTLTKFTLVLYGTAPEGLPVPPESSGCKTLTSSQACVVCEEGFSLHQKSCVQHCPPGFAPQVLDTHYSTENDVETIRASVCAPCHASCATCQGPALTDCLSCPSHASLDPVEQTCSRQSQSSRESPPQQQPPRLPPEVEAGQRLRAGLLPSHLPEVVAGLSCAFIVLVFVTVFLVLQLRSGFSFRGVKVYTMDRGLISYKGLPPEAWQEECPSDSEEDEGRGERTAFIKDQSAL
Test: Furin cell-based assay (image-based, Golgi-targeted GFP with BMP10 furin/PCSK cleavage site);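 note: Read-out is mean GFP fluorescence of Golgi puncta per cell by high-content imaging, retained when furin inhibited, over an eleven-point 0.00017–10 µM series, four-parameter fit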
Conditions: 24-hour incubation, read-out: furin golgi cell pXC50 (converted)
Structures can show the parent of a compound that is named as a salt.
ASSAY READOUT: EC50 (nM)

compound=CNC(=O)NCC1CCN(Cc2cc(Oc3cnc(N4CCN(CCO)CC4)nc3)cc(-c3cc(Cl)cc(Cl)c3)c2)CC1 unit_descriptor=nM recorded_measurement=15.8
compound="CN1CCN(c2ccc(Oc3nc(-c4cc(Cl)cc(Cl)c4)cc(CN4CCC(CC(=O)O)CC4)c3F)cn2)CC1 [Example 377, hydrochloride]" unit_descriptor=nM recorded_measurement=25.1
compound="CN1CCN(c2ncc(Oc3cc(CN4CCC(OCC(=O)O)CC4)cc(-c4cc(Cl)cc(Cl)c4)n3)cn2)CC1 [Example 53, hydrochloride]" unit_descriptor=nM recorded_measurement=15.8
compound=CNC(=O)NCC1CCN(Cc2cc(Oc3cnc(N4CCN(CCC(=O)O)CC4)c(F)c3)nc(-c3cc(Cl)cc(Cl)c3)c2)CC1 unit_descriptor=nM recorded_measurement=25.1
compound="CNC(=O)NCC1CCN(Cc2cc(Oc3cnc(N4CCN(CCCS(N)(=O)=O)CC4)nc3)nc(-c3cc(Cl)cc(Cl)c3)c2)CC1 [Example 48, hydrochloride]" unit_descriptor=nM recorded_measurement=2.51
compound="COC(=O)NCC1(O)CCN(Cc2cc(Oc3ccc(N4CCNCC4)nc3)nc(-c3cc(Cl)cc(Cl)c3)c2)CC1 [Example 6, hydrochloride]" unit_descriptor=nM recorded_measurement=7.94

* * *

Biological target: Furin (108-574-Tev-Flag-His) enzyme (Homo sapiens, UniProt P09958)
Construct: Furin (108-574-Tev-Flag-His) enzyme was expressed and purified from CHO cells; TEV cleavage site (C); FLAG (C); His (C); made in house; host or cells: CHO cells
Test: Furin enzyme assay
Assay type: biochemical
We use 9 as the dividing line for furin enzyme pIC50: on or above the line is Y, below is N.

compound=CN1CCN(c2ncc(Oc3cc(CN4CCO[C@H](CCO)CC4)cc(-c4cc(Cl)cc(Cl)c4)n3)cn2)CC1 class_name=N
compound=CN1C2CC1CN(c1cnc(Oc3cc(CN4CCC(CC(=O)O)CC4)cc(-c4cc(Cl)cc(Cl)c4)n3)cn1)C2 class_name=N
compound="O=C(O)CC1CCN(Cc2cc(Oc3cnc(N4CCNCC(O)C4)nc3)nc(-c3cc(Cl)cc(Cl)c3)c2)CC1 (centres unmarked)" class_name=N
compound=CC(=O)NCC1CCN(Cc2cc(Oc3ccc(N4CCN(CCC(=O)O)C(C)(C)C4)nc3)nc(-c3cc(Cl)cc(Cl)c3)c2)CC1 class_name=Y
compound="CC(=O)NCC1CCN(Cc2cc(Oc3cnc(N4CCN(C(C)CCS(C)(=O)=O)CC4)nc3)nc(-c3cc(Cl)cc(Cl)c3)c2)CC1 (centres unmarked)" class_name=Y
compound="CC(=O)NCC1CCN(Cc2cc(Oc3cnc(N4CCN(CC(O)C(=O)O)CC4)nc3)nc(-c3cc(Cl)cc(Cl)c3)c2)CC1 (centres unmarked)" class_name=Y
compound="CC(CCN1CCN(c2ncc(Oc3cc(CN4CCC(CC(=O)O)CC4)cc(-c4cc(Cl)cc(Cl)c4)n3)cn2)CC1)[S+](C)[O-] (centres unmarked)" class_name=N
